- Test system: CAL-51
- Assay Procedure: normalised response (% of control), CellTiter-Glo; higher = more viable cells (100 = DMSO, 0 = benzethonium chloride kill control)
- Experimental Context: incubation time: 72 h
Readout Label: normalised response (%)
Entry rule: numbers only, all in %.

Before answering, review these 3 worked examples.
- Molecule: "CC(C)(C#N)c1cc(Cn2cncn2)cc(C(C)(C)C#N)c1 [Anastrozole] (10000 nM)"
  Unit Spec: "%"
  normalised response: 98.6
- Molecule: "O=C(O)CCCc1ccc(N(CCCl)CCCl)cc1 [Chlorambucil] (10000 nM)"
  Unit Spec: "%"
  normalised response: 117
- Molecule: "C[C@]12CC[C@H](O)CC1=CC[C@@H]1[C@@H]2CC[C@]2(C)C(c3cccnc3)=CC[C@@H]12 [Abiraterone] (5000 nM)"
  Unit Spec: "%"
  normalised response: 98.4

Specify reported normalised response for the molecule shown: O=C1NC(=O)[C@@H](c2cn3c4c(cccc24)CCC3)[C@@H]1c1c[nH]c2ccccc12 [Tivantinib] (1000 nM)
38.7

Specify reported normalised response for the molecule shown: Cc1ccc(NC(=O)c2ccc(CN3CCN(C)CC3)cc2)cc1Nc1nccc(-c2cccnc2)n1 [Imatinib] (10000 nM)
76.5

###

- Tested on: CAL-85-1
- Experimental Context: 72 h
Readout Label: EC50, CellTiter-Blue viability

- Compound: "CO[C@H]1C[C@@H]2CC[C@@H](C)[C@@](O)(O2)C(=O)C(=O)N2CCCC[C@H]2C(=O)O[C@H]([C@H](C)C[C@@H]2CC[C@@H](OCCO)[C@H](OC)C2)CC(=O)[C@H](C)/C=C(\\C)[C@@H](O)[C@@H](OC)C(=O)[C@H](C)C[C@H](C)/C=C/C=C/C=C/1C"
  Result: "0.219 nM"
- Compound: "COc1ccc(-c2ccc3c(N4CCOC[C@@H]4C)nc(N4CCOC[C@@H]4C)nc3n2)cc1CO"
  Result: "34.7 nM"

Specify reported EC50, CellTiter-Blue viability for the compound shown: O=C1NC(=O)[C@@H](c2cn3c4c(cccc24)CCC3)[C@@H]1c1c[nH]c2ccccc12 [Tivantinib]
543 nM

Specify reported EC50, CellTiter-Blue viability for the compound shown: `Cn1c(=O)n(-c2ccc(C(C)(C)C#N)cc2)c2c3cc(-c4cnc5ccccc5c4)ccc3ncc21`
12.6 nM

Specify reported EC50, CellTiter-Blue viability for the compound shown: `CCCCCCCCc1ccc(CCC(N)(CO)CO)cc1`
5290 nM

###

Catalogue of drug sensitivity score values
- Test system: BT-549
- Assay Procedure: drug sensitivity score (DSS), CellTiter-Blue viability (DSS (AUC-based score)); higher = stronger viability inhibition; extreme values may be limits of the assay
- Experimental Context: incubation time: 72 h
Keep the answer to the number alone.

Before answering, review these 3 worked examples.
- Compound: "CN1CCN(CCOc2cc(OC3CCOCC3)c3c(Nc4c(Cl)ccc5c4OCO5)ncnc3c2)CC1 [Saracatinib]"
  Number: 5
- Compound: "COc1ccc(-c2ccc3c(N4CCOC[C@@H]4C)nc(N4CCOC[C@@H]4C)nc3n2)cc1CO [AZD8055]"
  Number: 22.4
- Compound: "O=C(O)CCCc1ccc(N(CCCl)CCCl)cc1 [Chlorambucil]"
  Number: 0

The record that follows has no drug sensitivity score shown yet.
Identify measured drug sensitivity score obtained with BT-549 for CNNCc1ccc(C(=O)NC(C)C)cc1 [Procarbazine] .
0

Source of measurements: the supplement of paper PMC4862054
